// data source = the supplement of paper PMC7877785

# key: entry, value: self-splicing fitness (ln)
# experiment_notes: self-splicing fitness, log relative to wild type (ln ratio); higher = more splicing; Tetrahymena group I intron in knt gene, E. coli kanamycin selection, DiMSum; sequences stand for … in CUCUCU…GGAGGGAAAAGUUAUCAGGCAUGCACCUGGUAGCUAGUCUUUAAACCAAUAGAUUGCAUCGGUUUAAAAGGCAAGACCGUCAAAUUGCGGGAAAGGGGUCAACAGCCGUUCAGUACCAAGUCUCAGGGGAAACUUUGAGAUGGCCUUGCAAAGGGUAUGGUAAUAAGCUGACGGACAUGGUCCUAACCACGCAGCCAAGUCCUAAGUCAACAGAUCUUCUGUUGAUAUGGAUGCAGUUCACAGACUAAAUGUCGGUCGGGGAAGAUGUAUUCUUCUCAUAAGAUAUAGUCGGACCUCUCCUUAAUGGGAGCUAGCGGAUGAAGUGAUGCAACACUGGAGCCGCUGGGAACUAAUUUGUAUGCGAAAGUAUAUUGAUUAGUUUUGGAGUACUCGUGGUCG;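 also: selection with 25 µg/mL kanamycin versus none on LB agar overnight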
# experimental_parameters: 37 °C
Reply with the value as a number alone.

Could you share which self-splicing fitness (ln) value was measured for UCACAGCAAUAUUACGUAAG ?
-1.33

Could you share which self-splicing fitness (ln) value was measured for AUUUAGCAAUAUUACGUGAC ?
-1.49

Could you share which self-splicing fitness (ln) value was measured for UGGCAGCAAUAUUACGAGGG ?
-2.73

Could you share which self-splicing fitness (ln) value was measured for UCAAAGCAAUAUUACGAUUU ?
-2.3

Could you share which self-splicing fitness (ln) value was measured for GACGAGCAAUAUUACGCCCU ?
-1.47

Could you share which self-splicing fitness (ln) value was measured for AGGCAGCAAUAUUACGUUUA ?
-0.496

Could you share which self-splicing fitness (ln) value was measured for GAAUAGCAAUAUUACGUAUU ?
-1.45

Could you share which self-splicing fitness (ln) value was measured for CCUUAGCAAUAUUACGUGUG ?
-0.595

Could you share which self-splicing fitness (ln) value was measured for CUGGAGCAAUAUUACGGGGG ?
-1.89

Could you share which self-splicing fitness (ln) value was measured for AAGAAGCAAUAUUACGACUG ?
0.323

Could you share which self-splicing fitness (ln) value was measured for CUGGAGCAAUAUUACGUCUC ?
-1.16

Could you share which self-splicing fitness (ln) value was measured for UCUUAGCAAUAUUACGGUAG ?
-2.11

Could you share which self-splicing fitness (ln) value was measured for CAUUAGCAAUAUUACGGGAG ?
-1.09
